Source: ChEMBL document CHEMBL1201862

# System: NCI-H226
# METHOD DESCRIPTION: NCI tumour cell line growth inhibition, 48 h
Activity calls are given as the source filed them. Cut-off read from the data, not from the text of the source: active = GI50 up to about 1.1 µM and inactive = higher. Where a SMILES comes first, the peptide text is derived from it. [ ]: non-standard residue; d: D form. The star is where a group is joined. ξ: configuration not given here. X38 = O=C(OCc1ccccc1)[C@@H]1CCC[C@H]1N*; Fmoc = O=C(OCC1c2ccccc2-c2ccccc21)*; ξW = NC(Cc1c[nH]c2ccccc12)C(=O)O; ξF = NC(Cc1ccccc1)C(=O)O; Boc = CC(C)(C)OC(=O)*; ξK = NCCCCC(N)C(=O)O; ξT = CC(O)C(N)C(=O)O; tBu = CC(C)(C)*
GI50 values by entry

MOLECULE: CC(OC(C)(C)C)C(NC(=O)C(CCCCNC(=O)OC(C)(C)C)NC(=O)C(Cc1c[nH]c2ccccc12)NC(=O)C(Cc1ccccc1)NC(=O)OCC1c2ccccc2-c2ccccc21)C(=O)NC(Cc1ccccc1)C(=O)N[C@@H]1CCC[C@H]1C(=O)OCc1ccccc1 (some centres undefined) (Fmoc-[ξF][ξW][ξK](Boc)[ξT](tBu)[ξF]-X38)
GI50: > 100 µM (inactive)

MOLECULE: Nc1ncnc2c1ncn2[C@H]1C=C[C@@H](NO)C1
GI50: > 100 µM (inactive)

MOLECULE: COC(=O)c1ccc(C)cc1C1CN=NC12Cc1cccc(C)c1C2=O (centres undefined)
GI50: 25.1 µM (inactive)

MOLECULE: N#CCN(Cc1ccccc1)[C@H]1CCC[C@]1(O)/C=C/c1ccc2c(c1)OCO2
GI50: 18.4 µM (inactive)

MOLECULE: CNC(=S)N1CCN(C(C)=O)C1=S
GI50: 22.4 µM (inactive)

MOLECULE: N#C/C(=C\c1cc(O)cc(O)c1)C(N)=O
GI50: > 100 µM (inactive)

MOLECULE: c1ccc(CNc2ncnc3nn[nH]c23)cc1
GI50: > 100 µM (inactive)

MOLECULE: O=C1/C(=C/c2ccccc2)Oc2cc(O)ccc21
GI50: > 100 µM (inactive)

MOLECULE: CCOC(=O)C(=O)Nc1ccccc1OCC
GI50: > 100 µM (inactive)
